Values were extracted from patent US8748624B2.

Target: human glucagon receptor (GCGR) (Homo sapiens (Human))
Sequence (P47871 26-477): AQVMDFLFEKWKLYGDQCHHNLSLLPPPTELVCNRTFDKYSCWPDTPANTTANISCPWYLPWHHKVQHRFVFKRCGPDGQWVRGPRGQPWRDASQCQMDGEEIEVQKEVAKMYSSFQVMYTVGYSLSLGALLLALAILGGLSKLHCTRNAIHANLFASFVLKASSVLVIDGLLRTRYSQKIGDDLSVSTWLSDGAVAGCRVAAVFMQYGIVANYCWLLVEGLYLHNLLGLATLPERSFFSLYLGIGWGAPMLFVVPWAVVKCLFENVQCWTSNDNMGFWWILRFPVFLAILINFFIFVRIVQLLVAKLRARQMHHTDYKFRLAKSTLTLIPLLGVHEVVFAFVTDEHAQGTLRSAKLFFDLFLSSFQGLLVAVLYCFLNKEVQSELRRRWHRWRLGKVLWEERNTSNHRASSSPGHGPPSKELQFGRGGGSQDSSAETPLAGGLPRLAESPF
Test: Inhibition of 125I-glucagon binding to membranes from HEK293 cells expressing the human glucagon receptor
Settings: membranes of hGluc-1 HEK cells, 125I-glucagon 0.3 nM, 2 hours room temperature; IC50 converted to Ki; average if tested more than once
readout: Ki (nM)
Answer in nM, number only, no unit symbol.

[[record]]
compound_structure = "O=C(O)CCNC(=O)c1ccc(-c2cc(Cl)ccc2CNc2ccc(-c3ccc(Cl)cc3Cl)c(Cl)c2)cn1"
target_or_system = "human glucagon receptor (GCGR) (Homo sapiens (Human))"
number = 16.8

[[record]]
compound_structure = "O=C(O)CCNC(=O)c1ccc(-c2cc(C(F)(F)F)ccc2CNc2ccc(-c3ccc(Cl)cc3F)cc2)cn1"
target_or_system = "human glucagon receptor (GCGR) (Homo sapiens (Human))"
number = 26.3

[[record]]
compound_structure = "O=C(O)CCNC(=O)c1ccc(-c2cc(F)c(F)cc2C(=O)Nc2ccc(-c3ccc(Cl)cc3Cl)cc2)cn1"
target_or_system = "human glucagon receptor (GCGR) (Homo sapiens (Human))"
number = 33.5

[[record]]
compound_structure = "O=C(O)CCNC(=O)c1ccc(-c2cc(C(F)(F)F)ccc2CNc2ccc(-c3ccc(F)cc3Cl)c(Cl)c2)cn1"
target_or_system = "human glucagon receptor (GCGR) (Homo sapiens (Human))"
number = 21.3

[[record]]
compound_structure = "O=C(O)CCNC(=O)c1ccc(-c2cc(Cl)ccc2CNc2ccc(-c3ccccc3F)cc2)cn1"
target_or_system = "human glucagon receptor (GCGR) (Homo sapiens (Human))"
number = 104

[[record]]
compound_structure = "O=C(O)CCNC(=O)c1ccc(-c2cc(Cl)ccc2CNc2ccc(-c3ccc(F)c(C(F)(F)F)c3)c(Cl)c2)cn1"
target_or_system = "human glucagon receptor (GCGR) (Homo sapiens (Human))"
number = 12.4


Now for another entry.
Ki lookup needed for N#Cc1cc(NCc2cc(F)c(F)cc2-c2ccc(C(=O)NCCC(=O)O)nc2)ccc1-c1ccc(F)c(C(F)(F)F)c1 , thanks.
30.4
